Recorded values, source ChEMBL document CHEMBL1134939.

- MEASURED ON: Inosine-5'-monophosphate dehydrogenase 2 (Homo sapiens)
PROPERTY: IC50 (nM)
# value in nM; strip the unit string

Sample answers from the record:
Challenge: Request - read-out IC50 | tested on Inosine-5'-monophosphate dehydrogenase 2 (Homo sapiens) | molecule COc1cc(Nc2nnc(-c3ccccc3)[nH]2)ccc1-c1cnco1
Response given: 190

Challenge: How about COc1cc(NC2=NCC(c3ccccc3)O2)ccc1-c1cnco1 (centres undefined) ?
Response given: 110

Challenge: Repeat with COc1cc(Nc2noc(-c3ccccc3)n2)ccc1-c1cnco1
Response given: 59

---
Challenge: # returns recorded IC50 (system: Inosine-5'-monophosphate dehydrogenase 2 (Homo sapiens)) for COc1cc(Nc2cnc(-c3ccccc3)s2)ccc1-c1cnco1
Response given: 760
